Target: feline FcRn complex (FcRn-α subunit and β-microglobulin), biotin labeled (feline)
Experiment: SPR, pH 6
pKd: −log10 of the molar value.

binder	pKd
feline IgG1a A378C (antibody, part only; not given: Variable domains, not shown: another chain or arm of the molecule) constant: ASTTAPSVFPLAPSCGTTSGATVALACLVLGYFPEPVTVSWNSGALTSGVHTFPAVLQASGLYSLSSMVTVPSSRWLSDTFTCNVAHPPSNTKVDKTVRKTDHPPGPKPCDCPKCPPPEMLGGPSIFIFPPKPKDTLSISRTPEVTCLVVDLGPDDSDVQITWFVDNTQVYTAKTSPREEQFNSTYRVVSVLPILHQDWLKGKEFKCKVNSKSLPSPIERTISKAKGQPHEPQVYVLPPAQEELSRNKVSVTCLIKSFHPPDICVEWEITGQPEPENNYRTTPPQLDSDGTYFVYSKLSVDRSHWQRGNTYTCSVSHEALHSHHTQKSLTQSPGK	7.11
feline IgG1a S254T (antibody, part only; not given: Variable domains, not shown: another chain or arm of the molecule) constant: ASTTAPSVFPLAPSCGTTSGATVALACLVLGYFPEPVTVSWNSGALTSGVHTFPAVLQASGLYSLSSMVTVPSSRWLSDTFTCNVAHPPSNTKVDKTVRKTDHPPGPKPCDCPKCPPPEMLGGPSIFIFPPKPKDTLSITRTPEVTCLVVDLGPDDSDVQITWFVDNTQVYTAKTSPREEQFNSTYRVVSVLPILHQDWLKGKEFKCKVNSKSLPSPIERTISKAKGQPHEPQVYVLPPAQEELSRNKVSVTCLIKSFHPPDIAVEWEITGQPEPENNYRTTPPQLDSDGTYFVYSKLSVDRSHWQRGNTYTCSVSHEALHSHHTQKSLTQSPGK	7.79
